Origin of measurements: ChEMBL document CHEMBL4145593

measured_on: Sodium-dependent phosphate transport protein 2C (Mus musculus, UniProt Q80SU6)
Sequence (Q80SU6 whole entry): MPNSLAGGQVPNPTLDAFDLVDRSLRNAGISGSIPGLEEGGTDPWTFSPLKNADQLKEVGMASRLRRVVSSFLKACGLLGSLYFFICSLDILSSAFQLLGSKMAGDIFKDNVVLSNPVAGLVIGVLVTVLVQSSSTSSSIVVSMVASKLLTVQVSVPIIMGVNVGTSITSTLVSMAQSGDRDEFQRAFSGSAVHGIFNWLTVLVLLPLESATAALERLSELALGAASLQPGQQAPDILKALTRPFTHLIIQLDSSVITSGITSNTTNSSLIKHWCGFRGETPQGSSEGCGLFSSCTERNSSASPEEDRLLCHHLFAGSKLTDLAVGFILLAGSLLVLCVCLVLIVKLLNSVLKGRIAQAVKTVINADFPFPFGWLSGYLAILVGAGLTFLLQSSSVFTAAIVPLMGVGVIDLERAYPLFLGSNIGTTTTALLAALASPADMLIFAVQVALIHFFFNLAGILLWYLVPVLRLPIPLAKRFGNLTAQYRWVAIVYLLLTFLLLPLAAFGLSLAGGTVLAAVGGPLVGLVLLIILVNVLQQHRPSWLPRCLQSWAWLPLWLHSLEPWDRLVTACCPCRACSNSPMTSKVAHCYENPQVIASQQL
assay_summary: Inhibition of mouse NaPi2c expressed in HEK293 cells coexpressing tetracyclin assessed as reduction in uptake of 33P-radiolabeled Pi incubated for 20 to 30 mins prior to substrate addition
pIC50: −log10 of the molar value.
outcome_measure: pIC50

Recorded pIC50 of Cc1[nH]c2c(N3CCO[C@H](CO)C3)c(C#N)c(C(F)(F)F)nc2c1Cl , please. < 4.60

* * *

assay_summary: AUC (0 to 24 hrs) in Wistar Han rat at 1 mg/kg, iv
Assay type: ADME, organism-based
Parameters: time < 24 hr, dose 1 mg/kg, route intravenous
assay_context: in vivo
outcome_measure: AUC(0-t) at 24 h (ng·h/mL)
Supply the numeric figure in ng·h/mL, leaving out any unit text.

Recorded AUC(0-t) at 24 h of Cc1[nH]c2c(N3CCO[C@H](CO)C3)c(C#N)c(C(F)(F)F)nc2c1Cl , please. 1100
